- Test system: Mus musculus
- measurement_notes: Antimalarial efficacy against Plasmodium berghei in mice (Mus musculus) when administered subcutaneously each day for 4 days to five mice (Mus musculus) per dose regimen
- Type: functional
- condition_description: sc, 96 h

- compound: "CO[C@H]1O[C@@]2(c3ccc(C(=O)O)cc3)CC[C@H]3CCCC[C@]31OO2"
  unit_info: "mg/kg"
  ED50: 10.5
- compound: "CO[C@@H]1O[C@@]2(c3ccc(F)cc3)CC[C@H]3CCCC[C@]31OO2"
  unit_info: "mg/kg"
  ED50: 4.7
- compound: "CCN(CC)CCCC(C)Nc1ccnc2cc(Cl)ccc12 (stereo unspecified)"
  unit_info: "mg/kg"
  ED50: 1
- compound: "C[C@@H]1[C@H](OCc2ccc(C(=O)O)cc2)O[C@@H]2O[C@@]3(C)CC[C@@H]4[C@@H](C)CC[C@@H]1[C@]24OO3"
  unit_info: "mg/kg"
  ED50: 6.6
- compound: "CCO[C@H]1O[C@@H]2O[C@@]3(C)CC[C@H]4[C@H](C)CC[C@@H]([C@H]1C)[C@@]24OO3"
  unit_info: "mg/kg"
  ED50: 0.9
- compound: "CO[C@@H]1O[C@@]2(c3ccc(C(=O)O)cc3)CC[C@H]3CCCC[C@]31OO2"
  unit_info: "mg/kg"
  ED50: 22.5
